# ASSAY_NOTES: Waters SunFire C18, 150 × 2.1 mm, 3.5 µm, 35 °C, 0.3 mL/min, estimated dead time 1.1 min; A: water + 0.1% formic acid; B: acetonitrile + 0.1% formic acid; gradient (min/%B) 0/20 5/20 20/50 25/100
# DETAILS: stereoisomer not certain
For each record, write down the corresponding LC retention time.
Write the answer as a number in min, unit excluded.

Incoming: # input compound: O=C1NC(=O)N(N=Cc2ccc(-c3ccc([N+](=O)[O-])cc3)o2)C1O (stereo unspecified) ; wanted: its LC retention time
Outgoing: 15.2

Incoming: Repeat for the following compound: `COc1cc(OC)c(C(=O)CCCN2CCCC2)c(OC)c1`
Outgoing: 2

Incoming: Consider next the compound CCN(CC)CCOC(=O)C(Cc1cccc2ccccc12)CC1CCCO1 (stereo unspecified) in the same way.
Outgoing: 11.1

Incoming: Now the same for CC1(C)OC2CC3C4CCC5=CC(=O)C=CC5(C)C4C(O)CC3(C)C2(C(=O)CO)O1 (stereo unspecified)
Outgoing: 16.5

Incoming: Try this compound too: `CCN(CC)C(=O)c1cccnc1`
Outgoing: 2.4

Incoming: Same question, `CCCn1cnc2c1c(=O)n(CCCCC(C)=O)c(=O)n2C` this time
Outgoing: 12.1

Incoming: Do the same for COc1ccccc1OCC(O)COC(N)=O (stereo unspecified) please
Outgoing: 6.4

Incoming: Same question for O=C(c1ccccc1)c1ccc2n1CCC2C(=O)O (stereo unspecified) please.
Outgoing: 16.3

Incoming: Next up: `O=C1NC(=O)C(c2ccccc2)(c2ccccc2)N1`
Outgoing: 14.7

Incoming: How about CC(=O)SC1CC2=CC(=O)CCC2(C)C2CCC3(C)C(CCC34CCC(=O)O4)C12 (stereo unspecified) ?
Outgoing: 22

Incoming: Next up: C[N+]1(C)CCCC(OC(=O)C(O)(c2ccccc2)c2ccccc2)C1 (stereo unspecified)
Outgoing: 3

---

# ASSAY_NOTES: Waters SunFire C18, 150 × 2.1 mm, 3.5 µm, 35 °C, 0.3 mL/min, estimated dead time 1.1 min; A: water + 0.1% formic acid; B: acetonitrile + 0.1% formic acid; gradient (min/%B) 0/20 5/20 20/50 25/100
# DETAILS: stereoisomer not certain
Threshold check on LC retention time: strictly below 4 min is t; on or above 4 min is f.

Incoming: Dear colleague, could you confirm whether LC retention time of CCCC1OC2CC3C4CCC5=CC(=O)C=CC5(C)C4C(O)CC3(C)C2(C(=O)CO)O1 (stereo not given) falls below 4 min? Thanks.
Outgoing: f

Incoming: Next record, please: `CCC(=O)NS(=O)(=O)c1ccc(-c2c(-c3ccccc3)noc2C)cc1`
Outgoing: f

Incoming: Follow-up item: `COc1cc(CNC(=O)CCCCC=CC(C)C)ccc1O`
Outgoing: f

Incoming: Next entry: CCCCC1C(=O)N(c2ccccc2)N(c2ccc(O)cc2)C1=O (stereo not given)
Outgoing: f

Incoming: Continue with `CCCc1nn(C)c2c(=O)[nH]c(-c3cc(S(=O)(=O)N4CCN(C)CC4)ccc3OCC)nc12`
Outgoing: f

Incoming: Do the same for COc1ccc(CCN(C)CCCC(C#N)(c2ccc(OC)c(OC)c2)C(C)C)cc1OC (stereo not given) please
Outgoing: f

Incoming: Then `CCC1(c2ccccc2)C(=O)NC(=O)NC1=O` ?
Outgoing: f

Incoming: Field entry: `COc1ccc(CN(CCN(C)C)c2ccccn2)cc1`
Outgoing: t

Incoming: Then COc1cccc(C2(O)CCCCC2CN(C)C)c1 (stereo not given) ?
Outgoing: t

Incoming: Now the same for `CCN(CC)CCOCCOC(=O)C1(c2ccccc2)CCCC1`
Outgoing: f

Incoming: Next molecule up: CC(C(=O)O)c1cccc(C(=O)c2ccccc2)c1 (stereo not given)
Outgoing: f

Incoming: Please answer likewise for COC(=O)C1CC2=CC(=O)CCC2(C)C23OC2CC2(C)C(CCC24CCC(=O)O4)C13 (stereo not given)
Outgoing: f

Incoming: Also, CCCCCc1cc(O)c2c(c1)OC(C)(C)C1CCC(C(=O)O)=CC21 (stereo not given) please.
Outgoing: f

Incoming: Follow-up item: `CN(C)CCC=C1c2ccccc2CCc2ccccc21`
Outgoing: f

Incoming: Please answer likewise for CCC1(O)CCC2C3CCC4=CC(=O)CCC4=C3C=CC21CC (stereo not given)
Outgoing: f

Incoming: Please answer likewise for `CCN(CC)CC(=O)Nc1c(C)cccc1C`
Outgoing: t

Incoming: Entry to check: `Cn1c(=O)c2c(ncn2CCO)n(C)c1=O`
Outgoing: t

Incoming: Item: `CN(C)CCN(Cc1ccccc1)c1ccccn1`
Outgoing: t

Incoming: Queued: `CCC1(c2ccccc2)C(=O)NCNC1=O`
Outgoing: f

Incoming: Another molecule to check: `CC(=O)c1ccc2c(c1)N(CCCN(C)C)c1ccccc1S2`
Outgoing: f

Incoming: Cool, now `CCC1(c2cnc[nH]2)Cc2ccccc2C1`
Outgoing: t

Incoming: Check `CS(=O)(=O)c1ccc(C2=C(c3ccccc3)C(=O)OC2)cc1` too.
Outgoing: f

Incoming: And the next one, Cc1cccc(C(C)c2cnc[nH]2)c1C (stereo not given) ?
Outgoing: t

Incoming: Again, but for CN1C2CCC1C(C(=O)O)C(OC(=O)c1ccccc1)C2 (stereo not given)
Outgoing: t

Incoming: Please give the result for COc1ccc2nc(S(=O)Cc3ncc(C)c(OC)c3C)[nH]c2c1 (stereo not given) too.
Outgoing: f

Incoming: Next: `CC(C)[N+](C)(CCOC(=O)C1c2ccccc2Oc2ccccc21)C(C)C`
Outgoing: f

Incoming: Request: `CC(=O)CCCCn1c(=O)c2c(ncn2C)n(C)c1=O`
Outgoing: f

Incoming: Would you kindly repeat that for CN1CC(=O)N2C(Cc3c([nH]c4ccccc34)C2c2ccc3c(c2)OCO3)C1=O (stereo not given) ?
Outgoing: f

Incoming: Okay, and `O=C1CN(N=Cc2ccc(-c3ccc([N+](=O)[O-])cc3)o2)C(=O)N1` ?
Outgoing: f

Incoming: Now give it for `CCCCNc1cc(C(=O)O)cc(S(N)(=O)=O)c1Oc1ccccc1` too.
Outgoing: f

Incoming: And then CC12C=CC(=O)C=C1CCC1C2C(O)CC2(C)C1CCC2(O)C(=O)CO (stereo not given) , what is it?
Outgoing: f

Incoming: # repeat for `Cn1c(=O)c2[nH]cnc2n(C)c1=O`
Outgoing: t

Incoming: And for `Cc1cccc(C)c1NC1=NCCCS1` ?
Outgoing: t

Incoming: Follow-up entry: CCCC[N+]1(C)C2CC(OC(=O)C(CO)c3ccccc3)CC1C1OC12 (stereo not given)
Outgoing: t

Incoming: And `Cc1onc(-c2ccccc2)c1-c1ccc(S(N)(=O)=O)cc1` ?
Outgoing: f

Incoming: Consider next the molecule `CN1C(C(=O)Nc2ccc(O)cn2)=C(O)c2ccccc2S1(=O)=O` in the same way.
Outgoing: f

Incoming: Query `Nc1nc(N)c2nc(-c3ccccc3)c(N)nc2n1` next
Outgoing: t

Incoming: Also `CCCCCCCCC(=O)NCc1ccc(O)c(OC)c1` , if possible.
Outgoing: f

Incoming: Same thing, different molecule: `CCCCOc1cc(C(=O)OCCN(CC)CC)ccc1N`
Outgoing: f

Incoming: Further, for C[N+]12CCC(CC1)C(OC(=O)C(O)(c1ccccc1)c1ccccc1)C2 (stereo not given) ?
Outgoing: t

Incoming: Another: `Cn1c(=O)c2c(ncn2C)n(C)c1=O`
Outgoing: t

Incoming: Field entry: CC[N+]1(C)CCCC(OC(=O)C(O)(c2ccccc2)c2ccccc2)C1 (stereo not given)
Outgoing: t

Incoming: Next record, please: `CC(=O)N=c1sc(S(N)(=O)=O)nn1C`
Outgoing: t

Incoming: What do we get for Cc1cccc(C)c1NC(=O)C1CCCCN1C (stereo not given) ?
Outgoing: t
